Form field: Ki67 Proliferation, Day 9, PB (one value per entry).
- tgt: canine CD3 on canine T cells (canine PBMC) (canine, UniProt P27597 22-202)
- Sequence (P27597 22-202 limits assumed, chain 1 of 3): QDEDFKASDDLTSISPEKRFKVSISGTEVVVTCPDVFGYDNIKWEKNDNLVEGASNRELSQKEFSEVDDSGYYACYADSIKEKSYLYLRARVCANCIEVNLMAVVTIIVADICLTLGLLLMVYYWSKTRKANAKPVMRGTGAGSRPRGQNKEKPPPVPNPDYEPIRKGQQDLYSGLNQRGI
- Sequence (chain, as listed by the source limits assumed, chain 2 of 3): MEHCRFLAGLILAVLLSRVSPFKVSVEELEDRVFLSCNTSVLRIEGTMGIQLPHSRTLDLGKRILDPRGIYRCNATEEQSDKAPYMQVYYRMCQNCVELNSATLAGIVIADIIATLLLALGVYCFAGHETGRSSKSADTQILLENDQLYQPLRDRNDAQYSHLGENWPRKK
- Sequence (chain, as listed by the source limits assumed, chain 3 of 3): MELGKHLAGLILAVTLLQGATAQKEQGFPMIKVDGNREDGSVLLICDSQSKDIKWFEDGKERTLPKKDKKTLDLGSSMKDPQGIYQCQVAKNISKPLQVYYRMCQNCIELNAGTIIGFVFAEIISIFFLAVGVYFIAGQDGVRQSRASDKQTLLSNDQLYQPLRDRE
- protocolText: cell-based or functional assay

Below, each entry is followed by its recorded Ki67 Proliferation, Day 9, PB result.
# binder, experimentalReadout, result
rows = [
    ("PMX158 (monospecific anti-canine CD3, canine IgG-B effector function deficient Fc) (antibody, V domains shown) VH: ELTLQESGPGLVKPSQTLSLTCVVSGGSVTRSYYWNWIRQRPGRGLEWMGYWTGTTNYNPAFQGRISITADTAKNQCSLQLSSMTTEDTAVYYCAREGGKLLGAFGHWGQGTLVTVSS VL: SYVLTQLPSKNVTLKQPAHITCGGDKIGSKSVHWYQQKLGQAPVLIIYYDSSRLTGIPERFSGANSGNTATLTISGALAEDEADYYCQVWDSSAKASVFGGGTHLTVL", "Ki67 Proliferation, Day 9, PB", 0),
    ("PMX196 (monospecific anti-canine CD3, canine IgG-B effector function deficient Fc) (antibody, V domains shown) VH: ELTLQESGPGLVKPSQTLSLTCVVSGGSVTSSYYWNWIRQRPGRGLEWMGYWTGSTIYNPAFQGRISITADTAKNQFSLQLSSMTTEDTAVYFCVRERRMAFGSWGQGTLVIVSS VL: SYVLTQLPSKSVTLKQPAHITCGGDNIGRKSVHWYQQKLGQAPVLIISFDNNRPTGIPERFSGANSGNTATLTISGALAEDEADYYCQVWDSSAKASVFGGGTHLTVL", "Ki67 Proliferation, Day 9, PB", 0),
    ("PMX180 (monospecific anti-canine CD3, canine IgG-B effector function deficient Fc) (antibody, V domains shown) VH: ELTLQESGPGLVKPSQTLSLTCVVSGGSVTSNYYWNWIRQRPGRGLEWMGYWTGSTNYNPAFQGRISITADTAKKQFSLQLRSMTIEDTAVYYCARRGIPIFFDYWGQGTLVTVSS VL: SYVLTQLPSKNVTLKQPAHITCGGDNIGSKSVHWYQQKLGQAPVLIIYYDSSRPTGIPERFSGANSGNTATLTISGALAEDEADYYCQVWDSSASVFGGGTHLTVL", "Ki67 Proliferation, Day 9, PB", 0.58),
    ("PMX178 (monospecific anti-canine CD3, canine IgG-B effector function deficient Fc) (antibody, V domains shown) VH: ELALQESGPGLVRPSQTLSLTCVVSGGSVTRSYYWNWIRQRPGRGLEWMGYWTGTTIYNPAFQGRISITVDTAKNQFSLHLISMTTEDTAVYYCGREGGSSLGAIAYWGQGTRVTVSS VL: SYVLTQLPSKNVTLKQPAHITCGGDNIGRKSVHWYQQKLGQAPVLIIYYDSSRPTGIPERFSGANSGNTATLTISGALAEDEADYYCQVWDSSAKAAVFGGGTHLTVL", "Ki67 Proliferation, Day 9, PB", 0.16),
]

Sample PMX159 (monospecific anti-canine CD3, canine IgG-B effector function deficient Fc) (antibody, V domains shown) VH: ELTLQESGPGLVKPSQTLSLTCVVSGGSVTRSYYWNWIRQRPGRGLEWMGYWTGSTIYNPTFQGRISITADTAKSQFSLQLRSMTTEDTAMYFCAREGGKSLGAFAYWGQGTLVTVSS VL: SYVLTQLPSKNVTLKQPAHITCGGDKIGSKNVHWYQQKLGQAPVMIIYYDSSRPTGIPERFSGANSGNTATLTISGALAEDEADYYCQVWDSSAKAAVFGGGTHLTVL ; Ki67 Proliferation, Day 9, PB observed: 0

Sample PMX168 (monospecific anti-canine CD3, canine IgG-B effector function deficient Fc) (antibody, V domains shown) VH: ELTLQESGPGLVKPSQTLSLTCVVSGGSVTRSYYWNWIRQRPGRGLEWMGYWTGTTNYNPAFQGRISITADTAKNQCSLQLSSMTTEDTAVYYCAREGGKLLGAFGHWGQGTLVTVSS VL: SYVLTQLPSKNVTLKQPAHITCGGDKIGSKSVHWYQQKLGQAPVLIIYYDSSRPTGIPERFSGANSGNTATLTISGALAEDEADYYCQVWDSSAKASVFGGGTHLTVL ; Ki67 Proliferation, Day 9, PB observed: 0.36

Sample PMX191 (monospecific anti-canine CD3, canine IgG-B effector function deficient Fc) (antibody, V domains shown) VH: EVQLVESGGDLVKPAGSLRLSCVASGFTFSDYSMSWVRQGPEKGLQLVAGMNSDGSTTYYTDAVRGRFTISRDNAKNTMYLQMNSLRDEDTAIYYCAKGAAAPDYWGQGTLVTVSS VL: SYELTQPPSVNVTLRETAHITCGGDRIGSKYVQWIQQIPGQAPVVIIYKDNNRPTGIPERFSGANSGNTATLTISGALAEDEADYYCQVGDNYTWVFGEGTQLTVL ; Ki67 Proliferation, Day 9, PB observed: 0.6

Sample PMX200 (monospecific anti-canine CD3, canine IgG-B effector function deficient Fc) (antibody, V domains shown) VH: ELTLQESGPGLVKPSQTLSLTCIVSGGSVTSSYYWNWIRQSPGRGLEWMGYWTGNTNYNPALQGRIFITADTAKNQFSLQLRSMTTEDTAVYYCARGGYGYHYGMDYWGHGTSVFVSS VL: SYVLTQLPSKSVALKQPAHITCGGDNIGSKRVHWYQQKLGQAPALIISFDNSRPTGIPERFSGANSGNTATLTISGALAEDEADYYCQVWDSTAKASIFGGGTHLTVL ; Ki67 Proliferation, Day 9, PB observed: 0.78

Sample PMX176 (monospecific anti-canine CD3, canine IgG-B effector function deficient Fc) (antibody, V domains shown) VH: EVQLVESGGDLVKPGGSLRLSCVASGFTFSSYHMSWVRQAPGKGLQWVAYINSAGSTTSYTDAVQGRFTISRDNAKNTLYLQMNSLRAEDTAVYYCASEWIFMPWGQGSLVTVSS VL: SYVLTQLPSKNVTLKQPAHITCGGDNIGSKSVHWYQQKLGQAPVLIIYYDSSRPTGIPERFSGANSGNTATLTISGALAEDEADYYCQVWDSSAKARVFGEGTQLTVL ; Ki67 Proliferation, Day 9, PB observed: 0

Sample PMX184 (monospecific anti-canine CD3, canine IgG-B effector function deficient Fc) (antibody, V domains shown) VH: ELTLQESGPGLVKPSQTLSLTCGVSGGSVTRSHYWNWVRQRPGRGLEWMGYWTGSTNYNPAFQGRISITADTAKNQFSLQLRSMTTEDTAVYFCARETTIPTFFFDYWGQGTLVTVSS VL: SYVLTQLPSKNVTLKQPAHITCGGDNIGSKSVHWYQQKLGQAPVLIIYYDSSRPTGIPERFSGANSGNTATLTISGALAEDEADYYCQVWDSGAKAWVFGEGTQLTVL ; Ki67 Proliferation, Day 9, PB observed: 0.75
